- PROTOCOL NOTES: qHTS profiling for inhibitors of Plasmodium falciparum (3D7) proliferation (AID 743322);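 note: infected erythrocytes exposed to compound for 72 h before lysis; 100% = DMSO vehicle wells and 0% = 0.29 µM artemisinin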
- CONDITION: P. falciparum 3D7 proliferation; at 28.7 µM (top of the series)
QUANTITY NAME: remaining parasite growth % (stronger effect = lower value) (%)

> print(dat)
                            compound.smiles  value.observed
1  Cc1cnc(-c2cnc(NCCNc3ccc(C#N)cn3)nc2-c2ccc(Cl)cc2Cl)[nH]1              89
2  CC(C)c1ccccc1Cc1cc(C(=O)Nc2ccc(S(=O)(=O)c3ccccc3C(C)(C)C)cc2)c(O)c(O)c1O           0.404
3  C=CC(=O)Nc1cc2c(Nc3ccc(F)c(Cl)c3)ncnc2cc1C#CC(C)(C)N1CCN(C)CC1           -1.21
4      COc1ccc(C=Cc2cc(OC)c(OC)c(OC)c2)cc1O              92
5  Cc1nc2cnc3ccc(C#Cc4cccnc4)cc3c2n1-c1ccc(C(C)(C)C#N)cc1           -1.11
6  Cc1ccc(-c2ncn(-c3ccc(Nc4nccc(-c5cccc(N6CCOCC6)c5)n4)cc3)n2)cn1             3.9
7  C[C@]1(CO)CN(c2cc(C(=O)Nc3ccc4c(c3)-c3c(c(C(N)=O)nn3-c3ccc(F)cc3)CC4)c(Cl)cn2)C[C@@]1(C)CO            50.5
8    CCCCc1nc2cc(C=CC(=O)NO)ccc2n1CCN(CC)CC          -0.311
9  Nc1cc(C(F)(F)F)c(-c2cc(N3CCOCC3)nc(N3CCOCC3)n2)cn1            90.8
